Entries and their measured viability, T/C follow.
Tested on: 276233-004-R-J1-PDC KRAS spheroids with HUVEC/MSC, viability
testSummary: Anticancer human tumor 276233-004-R-J1-PDC patient-derived colon adenocarcinoma cell line growth inhibition [KRAS2]
conditionParameters: second compound 0.1 µM; first compound 0.00316 µM; stronger effect = lower value
Use % as the unit, but write only the number.

Sample records with viability, T/C:
# molecule, targetOfAssay, resultUnits, viability, T/C
records = [
    ("Cn1ncnc1[C@H]1c2n[nH]c(=O)c3cc(F)cc(c23)N[C@@H]1c1ccc(F)cc1 + CNCc1ccccc1-c1csc(C(C)Nc2nc(C)nc3cc(OC)c(OC)cc23)c1", "276233-004-R-J1-PDC KRAS spheroids with HUVEC/MSC, viability", "%", 98.2),
    ("CC(C)n1nc(-c2ccc3oc(N)nc3c2)c2c(N)ncnc21 + C=CC(=O)N1CCN(c2nc(=O)n(-c3c(C)ccnc3C(C)C)c3nc(-c4c(O)cccc4F)c(F)cc23)C(C)C1", "276233-004-R-J1-PDC KRAS spheroids with HUVEC/MSC, viability", "%", 64.8),
]

# get_value(readout='viability, T/C', item= CCN1CCN(Cc2ccc(Nc3ncc(F)c(-c4cc(F)c5nc(C)n(C(C)C)c5c4)n3)nc2)CC1 + CNCc1ccccc1-c1csc(C(C)Nc2nc(C)nc3cc(OC)c(OC)cc23)c1 ) 129

###

Tested on: 276233-004-R-J1-PDC KRAS spheroids with HUVEC/MSC, viability
testSummary: Anticancer human tumor 276233-004-R-J1-PDC cell line growth inhibition [KRAS2];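 note: cells exposed to agents for seven days before viability read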;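 for viability, T/C: 100% = DMSO vehicle control wells and lower values mean fewer viable cells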
conditionParameters: second compound 3.16 µM; first compound 1 µM; stronger effect = lower value
metric: viability, T/C (%)
The reply should be a number in %, with the unit left off.

Solved cases below.
# compound, viability, T/C [%]
records = [
    ("Cn1nccc1Nc1nccc(-c2cc3c(s2)C(C)(C)N(CCN2CCOCC2)C3=O)n1 + CC1OCC2(CCN(c3cnc(Sc4ccnc(N)c4Cl)c(N)n3)CC2)C1N", 30.3),
    ("O=C(c1cc(Cc2n[nH]c(=O)c3ccccc23)ccc1F)N1CCN(C(=O)C2CC2)CC1 + CNCc1ccccc1-c1csc(C(C)Nc2nc(C)nc3cc(OC)c(OC)cc23)c1", 1.9),
]

Attention now shifts to the item below.
What viability, T/C value was documented for this compound, COc1cc2nccc(Oc3ccc(NC(=O)C4(C(=O)Nc5ccc(F)cc5)CC4)cc3)c2cc1OC + COc1cc2nc(C)nc(NC(C)c3cc(N)cc(C(F)(F)F)c3)c2cc1OC1CCOC1 ? 60.8

###

System: 276233-004-R-J1-PDC KRAS spheroids with HUVEC/MSC, viability
testSummary: Anticancer human tumor 276233-004-R-J1-PDC cell line growth inhibition [KRAS2];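 note: cells exposed to agents for seven days before viability read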;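 for viability, T/C: 100% = DMSO vehicle control wells and lower values mean fewer viable cells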
conditionParameters: second compound 0.316 µM; first compound 0.1 µM; stronger effect = lower value
So basically, the class depends on measured viability, T/C, and the ranges are low bracket: < 80%; middle bracket: ≥ 80% and < 90%; high bracket: ≥ 90%

# molecule, assignedClass
data = [
    ("CC1COCCN1c1cc(-c2ccnn2C)c2ccnc(-c3ccn[nH]3)c2n1 (stereo unspecified) + COc1cc2nc(C)nc(NC(C)c3cc(N)cc(C(F)(F)F)c3)c2cc1OC1CCOC1", "low bracket"),
    ("CC(C)n1nc(-c2ccc3oc(N)nc3c2)c2c(N)ncnc21 + C=CC(=O)N1CCN(c2nc(=O)n(-c3c(C)ccnc3C(C)C)c3nc(-c4c(O)cccc4F)c(F)cc23)C(C)C1", "low bracket"),
    ("CCN1CCN(Cc2ccc(Nc3ncc(F)c(-c4cc(F)c5nc(C)n(C(C)C)c5c4)n3)nc2)CC1 + C=CC(=O)N1CCN(c2nc(OCC3CCCN3C)nc3c2CCN(c2cccc4cccc(C)c24)C3)CC1CC#N", "middle bracket"),
    ("O=C(c1cc(Cc2n[nH]c(=O)c3ccccc23)ccc1F)N1CCN(C(=O)C2CC2)CC1 + COc1cc2nc(C)nc(NC(C)c3cc(N)cc(C(F)(F)F)c3)c2cc1OC1CCOC1", "high bracket"),
    ("CC(=O)OC12COC1CC(O)C1(C)C(=O)C(O)C3=C(C)C(OC(=O)C(O)C(NC(=O)OC(C)(C)C)c4ccccc4)CC(O)(C(OC(=O)c4ccccc4)C21)C3(C)C (stereo unspecified) + CNCc1ccccc1-c1csc(C(C)Nc2nc(C)nc3cc(OC)c(OC)cc23)c1", "low bracket"),
]

In plain terms, what class is CN(C)C/C=C/C(=O)Nc1cc2c(Nc3ccc(F)c(Cl)c3)ncnc2cc1O[C@H]1CCOC1 + C=CC(=O)N1CCN(c2nc(=O)n(-c3c(C)ccnc3C(C)C)c3nc(-c4c(O)cccc4F)c(F)cc23)C(C)C1 ? middle bracket

Moving on to Cn1ncnc1[C@H]1c2n[nH]c(=O)c3cc(F)cc(c23)N[C@@H]1c1ccc(F)cc1 + CNCc1ccccc1-c1csc(C(C)Nc2nc(C)nc3cc(OC)c(OC)cc23)c1 high bracket

Query Cn1nccc1Nc1nccc(-c2cc3c(s2)C(C)(C)N(CCN2CCOCC2)C3=O)n1 + CC1OCC2(CCN(c3cnc(Sc4ccnc(N)c4Cl)c(N)n3)CC2)C1N next low bracket

###

Test system: 276233-004-R-J1-PDC KRAS spheroids with HUVEC/MSC, viability
testSummary: Anticancer human tumor 276233-004-R-J1-PDC cell line growth inhibition [KRAS2];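 note: cells exposed to agents for seven days before viability read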
conditionParameters: curve of first compound; second compound 0.0316 µM
metric: IC50

Please give the measured IC50 for this compound: COc1cc2nccc(Oc3ccc(NC(=O)C4(C(=O)Nc5ccc(F)cc5)CC4)cc3)c2cc1OC + C=CC(=O)N1CCN(c2nc(OCC3CCCN3C)nc3c2CCN(c2cccc4cccc(C)c24)C3)CC1CC#N > 10 µM

Note, next up: COC(=O)c1ccc2c(C(=Nc3ccc(N(C)C(=O)CN4CCN(C)CC4)cc3)c3ccccc3)c(O)[nH]c2c1 + C=CC(=O)N1CCN(c2nc(OCC3CCCN3C)nc3c2CCN(c2cccc4cccc(C)c24)C3)CC1CC#N > 10 µM

###

System: 276233-004-R-J1-PDC KRAS spheroids with HUVEC/MSC, viability
testSummary: Anticancer human tumor 276233-004-R-J1-PDC cell line growth inhibition [KRAS2];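 note: cells exposed to agents for seven days before viability read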
conditionParameters: curve of first compound; second compound 0.1 µM
Let's look at some compounds and their measured IC50.

What IC50 appears in the records for this compound with 276233-004-R-J1-PDC KRAS spheroids with HUVEC/MSC, viability? Cn1nccc1Nc1nccc(-c2cc3c(s2)C(C)(C)N(CCN2CCOCC2)C3=O)n1 + CNCc1ccccc1-c1csc(C(C)Nc2nc(C)nc3cc(OC)c(OC)cc23)c1 7.27 µM

Same for CN(C)C/C=C/C(=O)Nc1cc2c(Nc3ccc(F)c(Cl)c3)ncnc2cc1O[C@H]1CCOC1 + C=CC(=O)N1CCN(c2nc(OCC3CCCN3C)nc3c2CCN(c2cccc4cccc(C)c24)C3)CC1CC#N > 0.1 µM

Same again, this time with COc1cc(Nc2ncc3c(n2)-c2ccc(Cl)cc2C(c2c(F)cccc2OC)=NC3)ccc1C(=O)O + CC1OCC2(CCN(c3cnc(Sc4ccnc(N)c4Cl)c(N)n3)CC2)C1N > 10 µM

Similarly, CC(C)n1nc(-c2ccc3oc(N)nc3c2)c2c(N)ncnc21 + COc1cc2nc(C)nc(NC(C)c3cc(N)cc(C(F)(F)F)c3)c2cc1OC1CCOC1 ? > 0.1 µM

And then CC1OCC2(CCN(c3cnc(Sc4ccnc(N)c4Cl)c(N)n3)CC2)C1N (stereo unspecified) + C=CC(=O)N1CCN(c2nc(=O)n(-c3c(C)ccnc3C(C)C)c3nc(-c4c(O)cccc4F)c(F)cc23)C(C)C1 , what is it? > 10 µM

Now the same for O=C(c1cc(Cc2n[nH]c(=O)c3ccccc23)ccc1F)N1CCN(C(=O)C2CC2)CC1 + CNCc1ccccc1-c1csc(C(C)Nc2nc(C)nc3cc(OC)c(OC)cc23)c1 > 10 µM

###

Tested on: 276233-004-R-J1-PDC KRAS spheroids with HUVEC/MSC, viability
testSummary: Anticancer human tumor 276233-004-R-J1-PDC cell line growth inhibition [KRAS2];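 note: cells exposed to agents for seven days before viability read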;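 for viability, T/C: 100% = DMSO vehicle control wells and lower values mean fewer viable cells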
conditionParameters: second compound 10 µM; first compound 0.316 µM; stronger effect = lower value
In plain terms, low viability, T/C, meaning strictly below 30%, gives Criterion met, and everything else gives Criterion not met.

Example entries and their recorded answers appear below.
# compound, targetOfAssay, assignedClass
records = [
    ("CCNC(=O)CC1N=C(c2ccc(Cl)cc2)c2cc(OC)ccc2-n2c(C)nnc21 (stereo not given) + C=CC(=O)N1CCN(c2nc(=O)n(-c3c(C)ccnc3C(C)C)c3nc(-c4c(O)cccc4F)c(F)cc23)C(C)C1", "276233-004-R-J1-PDC KRAS spheroids with HUVEC/MSC, viability", "Criterion not met"),
    ("CC(=O)OC12COC1CC(O)C1(C)C(=O)C(O)C3=C(C)C(OC(=O)C(O)C(NC(=O)OC(C)(C)C)c4ccccc4)CC(O)(C(OC(=O)c4ccccc4)C21)C3(C)C (stereo not given) + CNCc1ccccc1-c1csc(C(C)Nc2nc(C)nc3cc(OC)c(OC)cc23)c1", "276233-004-R-J1-PDC KRAS spheroids with HUVEC/MSC, viability", "Criterion met"),
    ("COc1cc2nccc(Oc3ccc(NC(=O)C4(C(=O)Nc5ccc(F)cc5)CC4)cc3)c2cc1OC + COc1cc2nc(C)nc(NC(C)c3cc(N)cc(C(F)(F)F)c3)c2cc1OC1CCOC1", "276233-004-R-J1-PDC KRAS spheroids with HUVEC/MSC, viability", "Criterion met"),
    ("COC(=O)c1ccc2c(C(=Nc3ccc(N(C)C(=O)CN4CCN(C)CC4)cc3)c3ccccc3)c(O)[nH]c2c1 + CNCc1ccccc1-c1csc(C(C)Nc2nc(C)nc3cc(OC)c(OC)cc23)c1", "276233-004-R-J1-PDC KRAS spheroids with HUVEC/MSC, viability", "Criterion met"),
    ("CCN1CCN(Cc2ccc(Nc3ncc(F)c(-c4cc(F)c5nc(C)n(C(C)C)c5c4)n3)nc2)CC1 + C=CC(=O)N1CCN(c2nc(=O)n(-c3c(C)ccnc3C(C)C)c3nc(-c4c(O)cccc4F)c(F)cc23)C(C)C1", "276233-004-R-J1-PDC KRAS spheroids with HUVEC/MSC, viability", "Criterion not met"),
]

Criterion: viability, T/C strictly below 30%. Is it met by CC1(C)CCC(CN2CCN(c3ccc(C(=O)NS(=O)(=O)c4ccc(NCC5CCOCC5)c([N+](=O)[O-])c4)c(Oc4cnc5[nH]ccc5c4)c3)CC2)=C(c2ccc(Cl)cc2)C1 + COc1cc2nc(C)nc(NC(C)c3cc(N)cc(C(F)(F)F)c3)c2cc1OC1CCOC1 ? Criterion met

Try the compound CC(C)NCC(C(=O)N1CCN(c2ncnc3c2C(C)CC3O)CC1)c1ccc(Cl)cc1 (stereo not given) + COc1cc2nc(C)nc(NC(C)c3cc(N)cc(C(F)(F)F)c3)c2cc1OC1CCOC1 Criterion met

Same thing, different compound: Cn1nccc1Nc1nccc(-c2cc3c(s2)C(C)(C)N(CCN2CCOCC2)C3=O)n1 + COc1cc2nc(C)nc(NC(C)c3cc(N)cc(C(F)(F)F)c3)c2cc1OC1CCOC1 Criterion not met

Okay, and CC1COCCN1c1cc(-c2ccnn2C)c2ccnc(-c3ccn[nH]3)c2n1 (stereo not given) + CC1OCC2(CCN(c3cnc(Sc4ccnc(N)c4Cl)c(N)n3)CC2)C1N ? Criterion not met

Item: CC(=O)OC12COC1CC(O)C1(C)C(=O)C(O)C3=C(C)C(OC(=O)C(O)C(NC(=O)OC(C)(C)C)c4ccccc4)CC(O)(C(OC(=O)c4ccccc4)C21)C3(C)C (stereo not given) + C=CC(=O)N1CCN(c2nc(=O)n(-c3c(C)ccnc3C(C)C)c3nc(-c4c(O)cccc4F)c(F)cc23)C(C)C1 Criterion not met
